Details: 318.15 K; 101 kPa; Liquid; Vibrating tube method
Provide the reported mass density of each item.
Answers are plain numbers, in kg/m3.

Solved cases below.
CCn1cc[n+](C)c1.O=S(=O)([N-]S(=O)(=O)C(F)(F)F)C(F)(F)F
1497.65
CCCCCC[n+]1ccn(C)c1.O=S(=O)([N-]S(=O)(=O)C(F)(F)F)C(F)(F)F
1353.31
CCCC[n+]1ccn(C)c1.O=S(=O)([N-]S(=O)(=O)C(F)(F)F)C(F)(F)F
1415.13

Next up:
Name the reported mass density value associated with the molecule CCO
767.84

* * *

Details: 298.15 K; 101 kPa; Liquid; Vibrating tube method
measure: mass density (kg/m3)
Give bare numbers, in kg/m3.

Solved cases below.
CCn1cc[n+](C)c1.O=S(=O)([N-]S(=O)(=O)C(F)(F)F)C(F)(F)F
1517.76
CCO
785.32
CCCCCC[n+]1ccn(C)c1.O=S(=O)([N-]S(=O)(=O)C(F)(F)F)C(F)(F)F
1371.64

Next up:
Name the reported mass density value associated with the molecule CCCC[n+]1ccn(C)c1.O=S(=O)([N-]S(=O)(=O)C(F)(F)F)C(F)(F)F
1434.23
